- MEASURED_ON: T1, recombinant human Fc-PD-1 protein (human, UniProt Q15116 25-170)
- T1 construct: may be the same protein as the PD-1 Fc fusion of the Luminex assays; also called recombinant human PD-1 in an Fc fusion construct; not shown: Fc part not described
- ASSAY_SUMMARY: Biacore, Fab, human Fc-PD-1
MEASURED_ENDPOINT: Kd (nM)
Please give a number only; it is taken to be in nM.

Sample answers from the record:
A35796 (Fab, V domains shown, humanized Fab clone of 137F2; also called humanized antibody A35796) VH: QMQLVQSGPEVKKPGTSVKVSCKASGFTFTNYWIGWVRQAPGQALEWMGDIYPGGGYTNYNEKFKGRVTITADKSTSTAYMELSSLRSEDTAVYYCARGYDFVLDRWGQGTTVTVSS VL: DVVMTQSPAFLSVTPGEKVTITCKSSQSLFNSETQKNYLAWYQQKPGQPPKLLIYWASTRESGVPSRFSGSGSGTDFTLTISSLQPEDFATYYCKQSYTLRTFGGGTKLEIK | 1.18
A35793 (Fab, V domains shown, humanized Fab clone of 137F2; also called humanized antibody A35793) VH: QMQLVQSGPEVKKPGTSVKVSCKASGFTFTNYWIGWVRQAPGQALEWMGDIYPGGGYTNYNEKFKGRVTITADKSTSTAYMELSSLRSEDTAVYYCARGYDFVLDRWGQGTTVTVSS VL: DVVMTQSPAFLSVTPGEKVTITCKSSQSLFNSETQKNYLAWYQQKPGQPPKLLIYWASTRESGVPSRFSGSGSGTDFTFTISSLEAEDAATYYCKQSYTLRTFGGGTKLEIK | 0.912

As a next step, examine the binder that follows.
Give reported Kd value for A35805 (Fab, V domains shown, humanized Fab clone of 137F2; also called humanized antibody A35805) VH: QVQLVQSGSELKKPGASVKVSCKASGYTFTNYWIGWVRQAPGKGLEWMGDIYPGGGYTNYNEKFKGRVTITADKSTSTAYMELSSLRSEDTAVYYCARGYDFVLDRWGQGTTVTVSS VL: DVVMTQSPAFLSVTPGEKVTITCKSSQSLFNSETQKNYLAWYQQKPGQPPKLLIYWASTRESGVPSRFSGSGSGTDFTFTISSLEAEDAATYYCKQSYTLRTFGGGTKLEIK 0.937
